The reader will find reported surface tension liquid-gas values listed item by item below.
- test-settings: 298.15 K, Ring tensiometer
Your answer should be a plain number; it is taken to be in mN/m.

Consider the worked cases shown below.
compound	surface tension liquid-gas / mN/m
CO [methanol]	22.4
CCn1cc[n+](C)c1.COP(=O)([O-])OC [1-ethyl-3-methylimidazolium dimethylphosphate]	44.3
CCO [ethanol]	21.9
COP(=O)([O-])OC.Cn1cc[n+](C)c1 [1,3-dimethylimidazolium dimethylphosphate]	48.4
CCCCn1cc[n+](C)c1.COP(=O)([O-])OC [1-butyl-3-methyl-1H-imidazolium dimethylphosphate]	38

Given item CCOP(=O)([O-])OCC.CCn1cc[n+](C)c1 [1-ethyl-3-methylimidazolium diethyl phosphate] , the value recorded as its surface tension liquid-gas is 37.1

Value of measured surface tension liquid-gas for the entry CCCCn1cc[n+](CC)c1.CCOP(=O)([O-])OCC [1-butyl-3-ethyl-1H-imidazol-3-ium diethyl phosphate] : 32.2

Notebook: O [water] , surface tension liquid-gas read as 71.9

Field surface tension liquid-gas (entry CCOP(=O)([O-])OCC.CCn1cc[n+](CC)c1 [1,3-diethyl-1H-imidazol-3-ium diethyl phosphate] ) reads 35.5

Noted for CCCCOP(=O)([O-])OCCCC.CCCCn1cc[n+](C)c1 [1-butyl-3-methylimidazolium dibutyl phosphate] : its surface tension liquid-gas reads 29.4

---

We begin with a simple list: items and their reported surface tension liquid-gas.
- method: xn = mol fraction of the nth substance listed
- test-settings: 298.15 K, Ring tensiometer, x1 = 0.6
± gives the expanded uncertainty stated by the source.
Hi, when you answer, please include the unit after the number. Thanks!

Guide cases for surface tension liquid-gas, answers given:
compound	surface tension liquid-gas
CCCCn1cc[n+](CC)c1.CCOP(=O)([O-])OCC [1-butyl-3-ethyl-1H-imidazol-3-ium diethyl phosphate] + CO	31.1 ± 0.4 mN/m
COP(=O)([O-])OC.Cn1cc[n+](C)c1 [1,3-dimethylimidazolium dimethylphosphate] + O	49.3 ± 0.7 mN/m
CCn1cc[n+](C)c1.COP(=O)([O-])OC [1-ethyl-3-methylimidazolium dimethylphosphate] + CCO	31.7 ± 0.5 mN/m

Now, please, on to the next compound.
In plain terms, CCCCOP(=O)([O-])OCCCC.CCCCn1cc[n+](C)c1 [1-butyl-3-methylimidazolium dibutyl phosphate] + O has a documented surface tension liquid-gas of 29.3 ± 0.4 mN/m

---

- method: xn = mol fraction of the nth substance listed
- test-settings: 298.15 K, Ring tensiometer, x1 = 0.8
measured-metric: surface tension liquid-gas (mN/m)
Numeric only. Scale: mN/m

Before answering, review these 5 worked examples.
molecule	unit-name	surface tension liquid-gas
CCOP(=O)([O-])OCC.CCn1cc[n+](CC)c1 [1,3-diethyl-1H-imidazol-3-ium diethyl phosphate] + CCO	mN/m	32.5
CCCCn1cc[n+](CC)c1.CCOP(=O)([O-])OCC [1-butyl-3-ethyl-1H-imidazol-3-ium diethyl phosphate] + CO	mN/m	32.3
CCCCn1cc[n+](C)c1.COP(=O)([O-])OC [1-butyl-3-methyl-1H-imidazolium dimethylphosphate] + CCO	mN/m	34
CCCCn1cc[n+](CC)c1.CCOP(=O)([O-])OCC [1-butyl-3-ethyl-1H-imidazol-3-ium diethyl phosphate] + O	mN/m	32.3
CCOP(=O)([O-])OCC.CCn1cc[n+](CC)c1 [1,3-diethyl-1H-imidazol-3-ium diethyl phosphate] + O	mN/m	36.1

The molecule listed as CCOP(=O)([O-])OCC.CCn1cc[n+](CC)c1 [1,3-diethyl-1H-imidazol-3-ium diethyl phosphate] + CO has a reported surface tension liquid-gas of 36.1

Briefly, surface tension liquid-gas measured for CCCCOP(=O)([O-])OCCCC.CCCCn1cc[n+](C)c1 [1-butyl-3-methylimidazolium dibutyl phosphate] + CO : 29.4

Record COP(=O)([O-])OC.Cn1cc[n+](C)c1 [1,3-dimethylimidazolium dimethylphosphate] + CCO , field surface tension liquid-gas: 37.5

Entry CCn1cc[n+](C)c1.COP(=O)([O-])OC [1-ethyl-3-methylimidazolium dimethylphosphate] + CCO — recorded surface tension liquid-gas = 36.5

Value of surface tension liquid-gas reported for the molecule CCCCOP(=O)([O-])OCCCC.CCCCn1cc[n+](C)c1 [1-butyl-3-methylimidazolium dibutyl phosphate] + CCO is 28.3

The molecule listed as COP(=O)([O-])OC.Cn1cc[n+](C)c1 [1,3-dimethylimidazolium dimethylphosphate] + O shows surface tension liquid-gas equal to 48.9

Recorded result, CCOP(=O)([O-])OCC.CCn1cc[n+](C)c1 [1-ethyl-3-methylimidazolium diethyl phosphate] + CCO , surface tension liquid-gas: 33.2

// sample CCCCn1cc[n+](C)c1.COP(=O)([O-])OC [1-butyl-3-methyl-1H-imidazolium dimethylphosphate] + O , its surface tension liquid-gas was 38

Reported surface tension liquid-gas ( CCCCn1cc[n+](C)c1.COP(=O)([O-])OC [1-butyl-3-methyl-1H-imidazolium dimethylphosphate] + CO ) = 38

---

Reported surface tension liquid-gas values follow for various compounds
- method: xn = mol fraction of the nth substance listed
- test-settings: 298.15 K, Ring tensiometer, x1 = 0.1
Just the number in mN/m, nothing appended.

compound	unit-name	surface tension liquid-gas
COP(=O)([O-])OC.Cn1cc[n+](C)c1 [1,3-dimethylimidazolium dimethylphosphate] + CO	mN/m	26.9
COP(=O)([O-])OC.Cn1cc[n+](C)c1 [1,3-dimethylimidazolium dimethylphosphate] + O	mN/m	55.7
CCCCOP(=O)([O-])OCCCC.CCCCn1cc[n+](C)c1 [1-butyl-3-methylimidazolium dibutyl phosphate] + CO	mN/m	26.4
CCCCn1cc[n+](C)c1.COP(=O)([O-])OC [1-butyl-3-methyl-1H-imidazolium dimethylphosphate] + O	mN/m	42.1

// field: surface tension liquid-gas; key: CCCCn1cc[n+](CC)c1.CCOP(=O)([O-])OCC [1-butyl-3-ethyl-1H-imidazol-3-ium diethyl phosphate] + O ; value = 35.9

Recorded result, CCCCn1cc[n+](CC)c1.CCOP(=O)([O-])OCC [1-butyl-3-ethyl-1H-imidazol-3-ium diethyl phosphate] + CO , surface tension liquid-gas: 26.1

Form field surface tension liquid-gas, entry CCOP(=O)([O-])OCC.CCn1cc[n+](CC)c1 [1,3-diethyl-1H-imidazol-3-ium diethyl phosphate] + CCO : 22.6

For record COP(=O)([O-])OC.Cn1cc[n+](C)c1 [1,3-dimethylimidazolium dimethylphosphate] + CCO the listed surface tension liquid-gas is 23.2

Looking up CCn1cc[n+](C)c1.COP(=O)([O-])OC [1-ethyl-3-methylimidazolium dimethylphosphate] + O , I see its surface tension liquid-gas listed as 48.9

The compound CCOP(=O)([O-])OCC.CCn1cc[n+](CC)c1 [1,3-diethyl-1H-imidazol-3-ium diethyl phosphate] + O showed surface tension liquid-gas equal to 40.7

Recorded result, CCn1cc[n+](C)c1.COP(=O)([O-])OC [1-ethyl-3-methylimidazolium dimethylphosphate] + CCO , surface tension liquid-gas: 22.9

Entry CCOP(=O)([O-])OCC.CCn1cc[n+](C)c1 [1-ethyl-3-methylimidazolium diethyl phosphate] + O , surface tension liquid-gas reported as 42.6

---

- method: xn = mol fraction of the nth substance listed
- test-settings: 298.15 K, Ring tensiometer, x1 = 0.2
measured-metric: surface tension liquid-gas (mN/m)
I only need the number, in mN/m, no unit after it.

molecule	surface tension liquid-gas [mN/m]
COP(=O)([O-])OC.Cn1cc[n+](C)c1 [1,3-dimethylimidazolium dimethylphosphate] + CO	30.4
CCn1cc[n+](C)c1.COP(=O)([O-])OC [1-ethyl-3-methylimidazolium dimethylphosphate] + CO	29.5
COP(=O)([O-])OC.Cn1cc[n+](C)c1 [1,3-dimethylimidazolium dimethylphosphate] + O	51.8
CCn1cc[n+](C)c1.COP(=O)([O-])OC [1-ethyl-3-methylimidazolium dimethylphosphate] + CCO	24
CCOP(=O)([O-])OCC.CCn1cc[n+](CC)c1 [1,3-diethyl-1H-imidazol-3-ium diethyl phosphate] + CO	28.6

Looking up COP(=O)([O-])OC.Cn1cc[n+](C)c1 [1,3-dimethylimidazolium dimethylphosphate] + CCO , I found its surface tension liquid-gas recorded as 24.5

---

surface tension liquid-gas reference
- method: xn = mol fraction of the nth substance listed
- test-settings: 298.15 K, Ring tensiometer, x1 = 0.6
± gives the expanded uncertainty stated by the source.

compound	meas-value
CCCCn1cc[n+](C)c1.COP(=O)([O-])OC [1-butyl-3-methyl-1H-imidazolium dimethylphosphate] + CO	35.1 ± 0.5 mN/m
COP(=O)([O-])OC.Cn1cc[n+](C)c1 [1,3-dimethylimidazolium dimethylphosphate] + CCO	32.7 ± 0.5 mN/m
CCCCOP(=O)([O-])OCCCC.CCCCn1cc[n+](C)c1 [1-butyl-3-methylimidazolium dibutyl phosphate] + CO	28.9 ± 0.4 mN/m
CCCCn1cc[n+](C)c1.COP(=O)([O-])OC [1-butyl-3-methyl-1H-imidazolium dimethylphosphate] + CCO	30.5 ± 0.4 mN/m
COP(=O)([O-])OC.Cn1cc[n+](C)c1 [1,3-dimethylimidazolium dimethylphosphate] + CO	40 ± 0.5 mN/m
CCOP(=O)([O-])OCC.CCn1cc[n+](C)c1 [1-ethyl-3-methylimidazolium diethyl phosphate] + O	37.4 ± 0.5 mN/m
CCCCn1cc[n+](C)c1.COP(=O)([O-])OC [1-butyl-3-methyl-1H-imidazolium dimethylphosphate] + O	38.3 ± 0.5 mN/m
CCOP(=O)([O-])OCC.CCn1cc[n+](C)c1 [1-ethyl-3-methylimidazolium diethyl phosphate] + CCO	30.1 ± 0.4 mN/m

The reported value for CCOP(=O)([O-])OCC.CCn1cc[n+](C)c1 [1-ethyl-3-methylimidazolium diethyl phosphate] + CO in terms of surface tension liquid-gas is 34.7 ± 0.5 mN/m

compound CCCCn1cc[n+](CC)c1.CCOP(=O)([O-])OCC [1-butyl-3-ethyl-1H-imidazol-3-ium diethyl phosphate] + CCO , surface tension liquid-gas observed: 28.5 ± 0.4 mN/m
